Tested on: 786-0
method.notes: Cytotoxicity against human 786-0 cells after 48 hrs by sulforhodamine B assay
Format: functional
particulars: 786-0, 48 h, read-out: LC50 (the source's name)
Labelling: CC50 reported below 10 µM becomes yes (1); at or above becomes no (0).

Qu. Determine if Nc1c(C(=O)Nc2ccccc2Cl)sc2nc3c(cc12)CCCCCC3 shows CC50 strictly lower than 10 µM.
Ans. yes (1)

Qu. Then Cc1cccc(NC(=O)c2sc3nc4c(cc3c2N)CCC4)c1C ?
Ans. no (0)

Qu. Then Nc1c(C(=O)Nc2cccc(C(F)(F)F)c2)sc2nc3c(cc12)CCCCCC3 ?
Ans. yes (1)

Qu. Then Nc1c(C(=O)Nc2cccc(C(F)(F)F)c2)sc2nc3c(cc12)CCCCC3 ?
Ans. yes (1)

###

Test system: SF-539
method.notes: Cytotoxicity against human SF539 cells assessed as assessed as cell death at 100 uM after 48 hrs by sulforhodamine B assay
Type: functional, cell-based
Active and inactive are the calls of the source. The calls are words filed in the database; no cut-off is given here.
property.label: Activity

Examples with answers:
- compound: "Nc1c(C(=O)Nc2ccccc2)sc2nc3c(cc12)CCCC3"
  Activity: "inactive"
- compound: "COc1cccc(NC(=O)c2sc3nc4c(cc3c2N)CCCC4)c1"
  Activity: "inactive"
- compound: "CCC1CCc2nc3sc(C(=O)Nc4ccccc4C)c(N)c3cc2C1 (racemic)"
  Activity: "inactive"
- compound: "CCC1CCc2nc3sc(C(=O)Nc4cccc(F)c4)c(N)c3cc2C1 (racemic)"
  Activity: "inactive"
- compound: "CCC1CCc2nc3sc(C(=O)Nc4ccccc4F)c(N)c3cc2C1 (racemic)"
  Activity: "inactive"

In the following, a different compound is considered.
Qu. What does the data say about its Activity? Entry: Cc1cccc(NC(=O)c2sc3nc4c(cc3c2N)CCCC4)c1
Ans. inactive

###

assay.target: Tyrosyl-DNA phosphodiesterase 1 (Homo sapiens)
Sequence (Q9NUW8 whole entry): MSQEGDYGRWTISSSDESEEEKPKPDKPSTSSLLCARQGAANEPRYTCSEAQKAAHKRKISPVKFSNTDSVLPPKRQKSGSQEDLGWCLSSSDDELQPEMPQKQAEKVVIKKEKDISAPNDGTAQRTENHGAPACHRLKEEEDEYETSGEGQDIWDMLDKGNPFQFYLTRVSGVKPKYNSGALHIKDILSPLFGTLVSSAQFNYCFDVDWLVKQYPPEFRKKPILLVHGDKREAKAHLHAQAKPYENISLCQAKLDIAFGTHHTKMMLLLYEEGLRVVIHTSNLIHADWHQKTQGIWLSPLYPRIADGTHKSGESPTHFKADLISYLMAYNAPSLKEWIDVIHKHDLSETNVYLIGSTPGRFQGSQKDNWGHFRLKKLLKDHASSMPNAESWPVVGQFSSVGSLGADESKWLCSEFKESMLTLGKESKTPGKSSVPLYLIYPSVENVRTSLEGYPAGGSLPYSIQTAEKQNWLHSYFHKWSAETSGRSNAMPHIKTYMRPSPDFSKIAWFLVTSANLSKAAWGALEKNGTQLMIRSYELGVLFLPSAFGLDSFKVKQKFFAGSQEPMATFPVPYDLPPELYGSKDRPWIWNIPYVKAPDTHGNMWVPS
method.notes: Inhibition of recombinant human N-terminal His-tagged TDP1 (1824 bp) expressed in Escherichia coli BL21(DE3) cells using 5'-(5,6 FAM-AAC GTC AGG GTC TTC C-BHQ1)-3' as substrate measured every 1 min by RT-PCR method
property.label: pIC50
Scale note: pIC50 = -log10(concentration in M).

Qu. What does the data say about its pIC50? Entry: Cc1c(Cl)cccc1NC(=O)c1sc2nc3c(cc2c1N)C(=O)CC3
Ans. 5.66

Qu. Then Nc1c(C(=O)Nc2cccc(C(F)(F)F)c2)sc2nc3c(cc12)CCCCCC3 ?
Ans. 6.30

Qu. Then Nc1c(C(=O)Nc2ccccc2Cl)sc2nc3c(cc12)CCCCCC3 ?
Ans. 6.00

Qu. Then Nc1c(C(=O)Nc2cccc(C(F)(F)F)c2)sc2nc3c(cc12)C(=O)CC3 ?
Ans. 5.77
